Tested on: normal ECG in rats
Measurement Notes: The effect on normal electrocardiogram in rats
Assay type: in vivo, rat
Experimental Context: anesthetized rats, i.p. at ED84; 0 min (initial values)
// label 0 strictly below 30 ms in QRS (ECG); label 1 otherwise

query_smiles=COc1ccccc1N1CCN(CCCOc2cc(C)ccc2Cl)CC1 answer_label="label 0"
query_smiles=COc1ccccc1N1CCN(CCCOc2cc(C)cc(C)c2C)CC1 answer_label="label 1"
query_smiles=COc1ccccc1N1CCN(CCOCCOc2c(C)cccc2C)CC1.Cl answer_label="label 0"
query_smiles=COc1ccccc1N1CCN(CCOCCOc2c(C)cccc2Cl)CC1.Cl answer_label="label 0"
query_smiles=COc1ccccc1N1CCN(CCCOc2c(C)cc(C)cc2C)CC1 answer_label="label 0"

###

Test Target: α1D-adrenoreceptors (Rattus norvegicus)
Sequence (P23944 whole entry): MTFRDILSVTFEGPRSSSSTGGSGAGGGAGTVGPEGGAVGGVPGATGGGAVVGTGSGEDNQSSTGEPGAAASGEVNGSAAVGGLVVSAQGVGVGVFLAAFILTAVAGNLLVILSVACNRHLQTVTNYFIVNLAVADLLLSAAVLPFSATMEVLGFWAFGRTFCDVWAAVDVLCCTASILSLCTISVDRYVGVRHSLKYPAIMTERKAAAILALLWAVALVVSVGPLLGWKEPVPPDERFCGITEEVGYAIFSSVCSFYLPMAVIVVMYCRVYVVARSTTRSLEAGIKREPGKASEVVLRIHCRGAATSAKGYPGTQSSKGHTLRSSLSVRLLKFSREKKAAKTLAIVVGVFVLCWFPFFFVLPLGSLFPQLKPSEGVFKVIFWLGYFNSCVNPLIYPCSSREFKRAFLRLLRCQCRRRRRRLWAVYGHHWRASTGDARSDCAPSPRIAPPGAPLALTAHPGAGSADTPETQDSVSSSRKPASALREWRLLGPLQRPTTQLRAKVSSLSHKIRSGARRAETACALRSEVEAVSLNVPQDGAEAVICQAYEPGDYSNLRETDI
Measurement Notes: Functional bioassay, isolated rat aorta, noradrenaline contraction
Assay type: biochemical
Set-up: had aorta removed, denuded of endothelium and incubated in the Krebs-Henseleit solution; from tissue; host or cells: isolated rat aorta rings
Experimental Context: noradrenaline as agonist, read-out: pA2 ± S.E.M., α1D (converted)
Recorded Kb, one value per entry.
Property: Kb (nM)

compound="COc1ccccc1N1CCN(CCOCCOc2c(C)cccc2Cl)CC1.Cl [HBK-15]" test_target="α1D-adrenoreceptors (Rattus norvegicus)" assay_value=1.26
compound="COc1ccccc1N1CCN(CCCOc2cc(C)ccc2Cl)CC1 [HBK-16]" test_target="α1D-adrenoreceptors (Rattus norvegicus)" assay_value=0.724
compound="COc1ccccc1N1CCN(CCOCCOc2c(C)cccc2C)CC1.Cl [HBK-14]" test_target="α1D-adrenoreceptors (Rattus norvegicus)" assay_value=1.38
compound="COc1ccccc1N1CCN(CCCOc2cc(C)cc(C)c2C)CC1 [HBK-19]" test_target="α1D-adrenoreceptors (Rattus norvegicus)" assay_value=4.9
compound="COc1ccccc1N1CCN(CCCOc2c(C)cc(C)cc2C)CC1 [HBK-18]" test_target="α1D-adrenoreceptors (Rattus norvegicus)" assay_value=1.2

###

Test system: normal ECG in rats
Measurement Notes: The effect on normal electrocardiogram in rats
Type: in vivo, rat
Experimental Context: anesthetized rats, i.p. at ED84; 5 min
Recorded PQ (ECG), one value per entry.
Property: PQ (ECG) (ms)

query_smiles=COc1ccccc1N1CCN(CCCOc2cc(C)ccc2Cl)CC1 unit_tag=ms assay_value=63.7
query_smiles=COc1ccccc1N1CCN(CCCOc2cc(C)cc(C)c2C)CC1 unit_tag=ms assay_value=56.6
query_smiles=COc1ccccc1N1CCN(CCOCCOc2c(C)cccc2Cl)CC1.Cl unit_tag=ms assay_value=48.4
query_smiles=COc1ccccc1N1CCN(CCOCCOc2c(C)cccc2C)CC1.Cl unit_tag=ms assay_value=46.0
query_smiles=COc1ccccc1N1CCN(CCCOc2c(C)cc(C)cc2C)CC1 unit_tag=ms assay_value=61.5

###

System: normal ECG in rats
Measurement Notes: The effect on normal electrocardiogram in rats
Format: in vivo, rat
Experimental Context: anesthetized rats, i.p. at ED84; 40 min
Property: QT (ECG) (ms)

query_smiles=COc1ccccc1N1CCN(CCCOc2c(C)cc(C)cc2C)CC1 assay_value=76.9
query_smiles=COc1ccccc1N1CCN(CCOCCOc2c(C)cccc2C)CC1.Cl assay_value=89.0
query_smiles=COc1ccccc1N1CCN(CCCOc2cc(C)cc(C)c2C)CC1 assay_value=81.5
query_smiles=COc1ccccc1N1CCN(CCCOc2cc(C)ccc2Cl)CC1 assay_value=53.5
query_smiles=COc1ccccc1N1CCN(CCOCCOc2c(C)cccc2Cl)CC1.Cl assay_value=87.0

###

Recorded Beats/min (ECG), one value per entry.
Tested on: normal ECG in rats
Measurement Notes: The effect on normal electrocardiogram in rats
Format: in vivo, rat
Experimental Context: anesthetized rats, i.p. at ED84; 0 min (initial values)
Procedure: The experiment was carried out to exclude the influence of tested compounds on normal ECG. […] The influence on QRS complex, PQ interval, heart rate (RR), and QTc interval was determined.
Property: Beats/min (ECG) (Beats/min)

molecule="COc1ccccc1N1CCN(CCCOc2cc(C)ccc2Cl)CC1 [HBK-16]" test_target="normal ECG in rats" property="Beats/min (ECG)" unit_tag=Beats/min assay_value=329.6
molecule="COc1ccccc1N1CCN(CCCOc2c(C)cc(C)cc2C)CC1 [HBK-18]" test_target="normal ECG in rats" property="Beats/min (ECG)" unit_tag=Beats/min assay_value=328.0
molecule="COc1ccccc1N1CCN(CCOCCOc2c(C)cccc2Cl)CC1.Cl [HBK-15]" test_target="normal ECG in rats" property="Beats/min (ECG)" unit_tag=Beats/min assay_value=353.8
molecule="COc1ccccc1N1CCN(CCCOc2cc(C)cc(C)c2C)CC1 [HBK-19]" test_target="normal ECG in rats" property="Beats/min (ECG)" unit_tag=Beats/min assay_value=355.3
molecule="COc1ccccc1N1CCN(CCOCCOc2c(C)cccc2C)CC1.Cl [HBK-14]" test_target="normal ECG in rats" property="Beats/min (ECG)" unit_tag=Beats/min assay_value=366.0

###

Test system: normal ECG in rats
Measurement Notes: The effect on normal electrocardiogram in rats
Format: in vivo, rat
Experimental Context: anesthetized rats, i.p. at ED84; 5 min
Property: QT (ECG) (ms)

molecule="COc1ccccc1N1CCN(CCOCCOc2c(C)cccc2C)CC1.Cl [HBK-14]" unit_tag=ms assay_value=85.0
molecule="COc1ccccc1N1CCN(CCCOc2c(C)cc(C)cc2C)CC1 [HBK-18]" unit_tag=ms assay_value=77.0
molecule="COc1ccccc1N1CCN(CCOCCOc2c(C)cccc2Cl)CC1.Cl [HBK-15]" unit_tag=ms assay_value=86.5
molecule="COc1ccccc1N1CCN(CCCOc2cc(C)ccc2Cl)CC1 [HBK-16]" unit_tag=ms assay_value=51.2
molecule="COc1ccccc1N1CCN(CCCOc2cc(C)cc(C)c2C)CC1 [HBK-19]" unit_tag=ms assay_value=76.9

###

Test system: normal ECG in rats
Measurement Notes: The effect on normal electrocardiogram in rats
Assay type: in vivo, rat
Experimental Context: anesthetized rats, i.p. at ED84; 10 min
Recorded PQ (ECG), one value per entry.
Property: PQ (ECG) (ms)

compound="COc1ccccc1N1CCN(CCOCCOc2c(C)cccc2C)CC1.Cl [HBK-14]" property="PQ (ECG)" unit_tag=ms assay_value=46.3
compound="COc1ccccc1N1CCN(CCOCCOc2c(C)cccc2Cl)CC1.Cl [HBK-15]" property="PQ (ECG)" unit_tag=ms assay_value=48.2
compound="COc1ccccc1N1CCN(CCCOc2cc(C)cc(C)c2C)CC1 [HBK-19]" property="PQ (ECG)" unit_tag=ms assay_value=56.0
compound="COc1ccccc1N1CCN(CCCOc2cc(C)ccc2Cl)CC1 [HBK-16]" property="PQ (ECG)" unit_tag=ms assay_value=63.6
compound="COc1ccccc1N1CCN(CCCOc2c(C)cc(C)cc2C)CC1 [HBK-18]" property="PQ (ECG)" unit_tag=ms assay_value=57.4

###

Test system: normal ECG in rats
Measurement Notes: The effect on normal electrocardiogram in rats
Type: in vivo, rat
Experimental Context: anesthetized rats, i.p. at ED84; 5 min
Description: The experiment was carried out to exclude the influence of tested compounds on normal ECG. […] The influence on QRS complex, PQ interval, heart rate (RR), and QTc interval was determined.
Recorded QRS (ECG), one value per entry.
Property: QRS (ECG)

compound="COc1ccccc1N1CCN(CCCOc2c(C)cc(C)cc2C)CC1 [HBK-18]" property="QRS (ECG)" assay_value="30.4 ± 3.2 ms"
compound="COc1ccccc1N1CCN(CCOCCOc2c(C)cccc2Cl)CC1.Cl [HBK-15]" property="QRS (ECG)" assay_value="26.3 ± 0.9 ms"
compound="COc1ccccc1N1CCN(CCCOc2cc(C)ccc2Cl)CC1 [HBK-16]" property="QRS (ECG)" assay_value="21.7 ± 2.2 ms"
compound="COc1ccccc1N1CCN(CCOCCOc2c(C)cccc2C)CC1.Cl [HBK-14]" property="QRS (ECG)" assay_value="25.8 ± 0.5 ms"
compound="COc1ccccc1N1CCN(CCCOc2cc(C)cc(C)c2C)CC1 [HBK-19]" property="QRS (ECG)" assay_value="34.7 ± 1.6 ms"

###

System: normal ECG in rats
Measurement Notes: The effect on normal electrocardiogram in rats
Type: in vivo, rat
Experimental Context: anesthetized rats, i.p. at ED84; 20 min
Param label: returns y when QTc (ECG, Bazett) < 200 ms, returns n otherwise, including exact equality.

query_smiles=COc1ccccc1N1CCN(CCCOc2c(C)cc(C)cc2C)CC1 answer_label=y
query_smiles=COc1ccccc1N1CCN(CCCOc2cc(C)ccc2Cl)CC1 answer_label=y
query_smiles=COc1ccccc1N1CCN(CCCOc2cc(C)cc(C)c2C)CC1 answer_label=y
query_smiles=COc1ccccc1N1CCN(CCOCCOc2c(C)cccc2C)CC1.Cl answer_label=n
